Molecular target: furin, P09958;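 further: purified furin at 1:10 enzyme:substrate in 50 mM HEPES pH 7.5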
Sequence (P09958 whole entry): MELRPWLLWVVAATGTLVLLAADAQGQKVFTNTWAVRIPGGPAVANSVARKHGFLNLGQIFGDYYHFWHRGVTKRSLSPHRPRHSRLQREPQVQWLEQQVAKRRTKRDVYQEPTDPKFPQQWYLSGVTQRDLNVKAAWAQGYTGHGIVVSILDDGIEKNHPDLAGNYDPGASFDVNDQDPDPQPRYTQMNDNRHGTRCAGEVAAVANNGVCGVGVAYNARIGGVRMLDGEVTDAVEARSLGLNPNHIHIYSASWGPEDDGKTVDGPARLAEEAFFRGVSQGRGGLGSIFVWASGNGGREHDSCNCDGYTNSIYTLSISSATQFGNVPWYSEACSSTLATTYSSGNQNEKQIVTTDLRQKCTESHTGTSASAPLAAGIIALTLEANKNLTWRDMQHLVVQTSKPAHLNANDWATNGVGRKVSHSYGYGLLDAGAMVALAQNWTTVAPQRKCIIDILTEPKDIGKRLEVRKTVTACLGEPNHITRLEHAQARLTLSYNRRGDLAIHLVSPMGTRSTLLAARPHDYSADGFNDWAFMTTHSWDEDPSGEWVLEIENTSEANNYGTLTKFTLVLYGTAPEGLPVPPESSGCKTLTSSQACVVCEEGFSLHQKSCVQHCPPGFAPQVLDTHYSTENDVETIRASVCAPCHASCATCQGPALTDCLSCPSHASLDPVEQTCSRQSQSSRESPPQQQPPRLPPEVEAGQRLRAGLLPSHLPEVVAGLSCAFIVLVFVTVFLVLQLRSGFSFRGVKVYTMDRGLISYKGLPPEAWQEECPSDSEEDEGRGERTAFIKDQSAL
Experiment: furin cleavage Z-score vs untreated control; higher = more cleavage, active = 3.5 or more, inactive = 1 or less, 8 variable residues between constant flanks
Conditions: 15 min
The list shows a part of the results. The true hit rate is not given.
Your answer must be one of the following: active, inactive

Test call, this sequence: CARVRRAATPAGNASASA [FS-2621] active

Per the assay record, what outcome was assigned to CASTPCSACLAGNASASA [HC2560] ? inactive

What outcome does the record of this test show for CATQPCSGSWAGNASASA [HC1862] ? inactive

Record request — test call for CASSGRPRRSAGNASASA [FS-507] active

Test call for this sequence, please: CAVDSRPRRSAGNASASA [FS-887] active

// param item: CARRKRNVNTAGNASASA [FS-2068] ; yields the recorded call active

Which result was noted for this sequence in the test: CAKALGLLQTAGNASASA [HC1026] inactive

What classification did CARSSRSGSSAGNASASA [FS-3096] end up with in this test? inactive

Query: recorded result category for CAARDQLEQAAGNASASA [HC1588] in this test inactive

In this assay, the call recorded for CARLRKGCGAAGNASASA [FS-2157] was what? inactive

Dear all, I need the recorded test outcome for CAMNTPGLPVAGNASASA [HC932] , thank you. inactive

Which outcome was entered for the sequence CARRKRKNKTAGNASASA [FS-1968] in this test? inactive

Short answer needed: outcome of this test for CARSSRPRRSAGNASASA [FS-1163] ? active

Which outcome was assigned to CARESRPRRQAGNASASA [FS-1395] in this test? active
